OTUB2 overview
# targetDesc: OTUB2 (OTUB2A) (Homo sapiens, UniProt Q96DC9)
# Construct: full length residues 1-234, E. coli BL21(DE3)-R3, His tag removed by TEV, construct 27312 Da
# Sequence (Q96DC9 whole entry, the tested form may be a part): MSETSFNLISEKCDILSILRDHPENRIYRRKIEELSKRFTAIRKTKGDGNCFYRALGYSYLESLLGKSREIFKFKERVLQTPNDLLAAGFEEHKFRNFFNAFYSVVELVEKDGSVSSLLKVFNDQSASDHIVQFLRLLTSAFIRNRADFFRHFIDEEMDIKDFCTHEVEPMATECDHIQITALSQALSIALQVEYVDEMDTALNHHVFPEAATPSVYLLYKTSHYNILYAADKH
# Design: Intact protein LC/MS covalent labelling, fragments in pools of five, 200 uM each, 4 °C
# condition: 24 h, 4 °C, pool of five; 200 µM; covalent
Quick one: just the number, no unit, thanks!

As a guide, the following entries are already answered.
> print(dat)
                                   molecule  measvalue
1        CCc1nnc(NC(=O)CCl)s1 [PCM-0102166]          0
2  O=C(CCl)N1CCN(c2ccc([N+](=O)[O-])cc2)CC1 [PCM-0102094]          0
3  C=CC(=O)N1CCN(C(=O)CN2C(=O)CCC2=O)CC1 [PCM-0102684]          0
4      O=C(CCl)Nc1ccc(F)cc1Cl [PCM-0103040]          0
5        O=C(CCl)Nc1ccc(F)cc1 [PCM-0103002]        0.3
6    O=C(CCl)Nc1cccnc1N1CCCC1 [PCM-0102852]          0

Enquiry: Retrieve OTUB2 on OTUB2 (OTUB2A) (Homo sapiens, UniProt Q96DC9); query O=C(CCl)N1CCN(c2ccc(Cl)cc2[N+](=O)[O-])CC1 [PCM-0102125]
Return: 0
